System: U2OS
TEST DESCRIPTION: Multiplex assay against U2OS
Format: toxicity, cell-based
EXPERIMENTAL CONTEXT: human, 12 h, 1 µM, compound concentration 1 uM, replicate 1
Non-standard residues stand in square brackets, D forms with d. Residues, ends and D or L forms follow the SMILES beside them.
Assign Fulfilled whenever Population Mitotic Cells (%) does not fall below 10%; assign Not fulfilled whenever it does.

Reference set (8 entries):
MOLECULE: Cc1cc(=O)n(C)c2cc(N3C(=O)CC[C@H](NS(=O)(=O)CC(C)C)[C@H]3c3ccc(Cl)cc3)ccc12
CLASS ASSIGNMENT: Fulfilled
--
MOLECULE: CN(C)C(=O)Cn1cc(-c2ccc(-c3nnc4ccccn34)cc2)cn1
CLASS ASSIGNMENT: Not fulfilled
--
MOLECULE: C[C@H](NC(=O)CNC(=O)c1cccc(Cl)c1)c1ccccc1
CLASS ASSIGNMENT: Fulfilled
--
MOLECULE: CSc1nc(NC2CCCC2)c([N+](=O)[O-])c(NC2CCCC2)n1
CLASS ASSIGNMENT: Fulfilled
--
MOLECULE: CN1CCN2c3ccccc3Cc3ccccc3C2C1.Cl (stereo not given) [MIANSERIN HYDROCHLORIDE]
CLASS ASSIGNMENT: Not fulfilled
--
MOLECULE: Cc1nn(C)c2nc(NNC(=O)Nc3cc(Cl)nc(Cl)c3)cc(C(C)C)c12
CLASS ASSIGNMENT: Fulfilled
--
MOLECULE: CC(C)C[C@@H]1NC(=O)[C@@H](C(C)C)NC(=O)[C@@H]2CCCN2C(=O)[C@@H](CC(=O)O)NC(=O)[C@@H](Cc2c[nH]c3ccccc23)NC1=O [BQ-123] (cyclo(L[dW][dD]P[dV]))
CLASS ASSIGNMENT: Fulfilled
--
MOLECULE: Cc1sc2c(c1C)C(c1ccc(Cl)cc1)=N[C@H](CC(=O)OC(C)(C)C)c1nnc(C)n1-2
CLASS ASSIGNMENT: Fulfilled

Continue with the next molecule.
Reported Population Mitotic Cells (%) reaches at least 10% for "O=C(Nc1cc(-c2ccccc2)nn1-c1ccccc1F)c1ccc([N+](=O)[O-])cc1" ?
Fulfilled

###

Tested on: Fibroblast
TEST DESCRIPTION: Multiplex assay against human fibroblast
Assay type: toxicity, cell-based
EXPERIMENTAL CONTEXT: 12 h, 10 µM, compound concentration 10 uM, replicate 1
ASSAY METRIC: Total Cell Count
Number only, please.

COMPOUND: C[C@@H]1CC(=O)Nc2cccc(-c3ccc4c(c3)c(-c3cnn(C)c3)nn4C)c2N1
Total Cell Count: 161
--
COMPOUND: Nc1nc(-c2ccco2)c2cnn(Cc3ccccc3F)c2n1
Total Cell Count: 123
--
COMPOUND: Cc1cc(O)c(-c2ccc([C@@H](C)CN(C)C)cc2)c2c1[nH]c(=O)c1sccc12
Total Cell Count: 146

Noted Total Cell Count for COc1cc2nc(N3CCN(C(=O)c4ccco4)CC3)nc(N)c2cc1OC.Cl [PRAZOSIN HYDROCHLORIDE] , tested on Fibroblast: 198

Summary line: COCCCN1CCC(NC(=O)c2cc(Cl)c(N)c3c2OCC3)CC1 [PRUCALOPRIDE] , Fibroblast, reported Total Cell Count = 144

###

Test system: Fibroblast
TEST DESCRIPTION: Multiplex assay against human fibroblast
Format: toxicity, cell-based
EXPERIMENTAL CONTEXT: 24 h, 10 µM, compound concentration 10 uM, replicate 2
ASSAY METRIC: Population Tubulin-Different-Phenotype (%)
Output spec: scalar in %, unitless text.

MOLECULE: COc1cc(Nc2ncc3c(n2)-c2ccc(Cl)cc2C(c2c(F)cccc2OC)=NC3)ccc1C(=O)O [ALISERTIB]
MEASURED: 71

The recorded Population Tubulin-Different-Phenotype (%) for entry CN(C)C/C=C/C(=O)Nc1ccc(C(=O)N2CCCC(Nc3ncc(Cl)c(-c4c[nH]c5ccccc45)n3)C2)cc1 (stereo not drawn) equals 72

The reported value for "COc1cc(OC2CCN(C(C)=O)CC2)ccc1C(=O)N1CCC(N2C(=O)OCc3ccccc32)CC1" in terms of Population Tubulin-Different-Phenotype (%) is 70

###

Form field: Population Apoptotic (%) (one value per entry).
Tested on: U2OS
TEST DESCRIPTION: Multiplex assay against U2OS
Type: toxicity, cell-based
EXPERIMENTAL CONTEXT: human, 24 h, 10 µM, compound concentration 10 uM, replicate 1
Express it in %; write the number only.

COMPOUND: COc1cc(C(=O)N2CC[C@@H](O)[C@@H](N)C2)cc2nc(-c3cc4ccccc4n3CC3CC3)n(C)c12.Cl
MEASURED: 84
--
COMPOUND: Cl.Cl.OCCOCCN1CCN(C(c2ccccc2)c2ccc(Cl)cc2)CC1 (configuration not stated) [HYDROXYZINE HYDROCHLORIDE]
MEASURED: 73
--
COMPOUND: C[C@@H]1CC(=O)Nc2cccc(-c3ccc4c(c3)c(-c3cnn(C)c3)nn4C)c2N1
MEASURED: 90
--
COMPOUND: Nc1nc(CC(=O)Nc2ccc(CCNC[C@H](O)c3ccccc3)cc2)cs1 [MIRABEGRON]
MEASURED: 86
--
COMPOUND: O=C(NCCNCC(O)COc1ccc(O)cc1)N1CCOCC1.O=C(NCCNCC(O)COc1ccc(O)cc1)N1CCOCC1.O=C(O)/C=C/C(=O)O (configuration not stated) [XAMOTEROL FUMARATE]
MEASURED: 89
--
COMPOUND: COCCCN1CCC(NC(=O)c2cc(Cl)c(N)c3c2OCC3)CC1 [PRUCALOPRIDE]
MEASURED: 87

As a next step, examine the compound that follows.
Field Population Apoptotic (%) (entry "COc1cc(OC2CCN(C(C)=O)CC2)ccc1C(=O)N1CCC(N2C(=O)OCc3ccccc32)CC1" ) reads 81

###

Tested on: U2OS
TEST DESCRIPTION: Multiplex assay against U2OS
Format: toxicity, cell-based
EXPERIMENTAL CONTEXT: human, 12 h, 1 µM, compound concentration 1 uM, replicate 1
ASSAY METRIC: Population Pyknosed Nuclei (%)
Please give a number only; it is taken to be in %.

COMPOUND: Nc1nc(-c2ccco2)c2cnn(Cc3ccccc3F)c2n1
Population Pyknosed Nuclei (%): 8
--
COMPOUND: COc1c(Nc2ccc(S(C)(=O)=O)nc2C)ncnc1OC1CCN(C(=O)OC(C)C)CC1
Population Pyknosed Nuclei (%): 8
--
COMPOUND: C=CCN1C[C@H](C(=O)N(CCCN(C)C)C(=O)NCC)C[C@@H]2c3cccc4[nH]cc(c34)C[C@H]21
Population Pyknosed Nuclei (%): 13
--
COMPOUND: COc1ccc2c(c1OCc1ccccc1)C[C@@H](C(=O)O)N(C(=O)C(c1ccccc1)c1ccccc1)C2
Population Pyknosed Nuclei (%): 8
--
COMPOUND: COc1cc(C(=O)N2CC[C@@H](O)[C@@H](N)C2)cc2nc(-c3cc4ccccc4n3CC3CC3)n(C)c12.Cl
Population Pyknosed Nuclei (%): 14

Briefly, Population Pyknosed Nuclei (%) measured for O=C(NCCNCC(O)COc1ccc(O)cc1)N1CCOCC1.O=C(NCCNCC(O)COc1ccc(O)cc1)N1CCOCC1.O=C(O)/C=C/C(=O)O (configuration not stated) [XAMOTEROL FUMARATE] : 5

###

Recorded Population Mitochondria Different-Phenotype (%), one value per entry.
Test system: HEK-293T
TEST DESCRIPTION: Multiplex assay against HEK293T
Type: toxicity, cell-based
EXPERIMENTAL CONTEXT: human, 24 h, 1 µM, compound concentration 1 uM, replicate 2
Express it in %; write the number only.

# count of solved cases: 8
COMPOUND: CN1CCC(C(=O)c2cccc(NC(=O)c3c(F)cc(F)cc3F)n2)CC1
MEASURED: 39

COMPOUND: O=c1ccc2ccc(OCCCCN3CCN(c4cccc5sccc45)CC3)cc2[nH]1 [BREXPIPRAZOLE]
MEASURED: 52

COMPOUND: CCC(=O)OCC(=O)[C@@]1(OC(=O)CC)[C@@H](C)C[C@H]2[C@@H]3CCC4=CC(=O)C=C[C@]4(C)[C@@]3(Cl)[C@@H](O)C[C@@]21C [BECLOMETHASONE DIPROPIONATE]
MEASURED: 52

COMPOUND: Cl.Cl.OCCOCCN1CCN(C(c2ccccc2)c2ccc(Cl)cc2)CC1 (configuration not stated) [HYDROXYZINE HYDROCHLORIDE]
MEASURED: 41

COMPOUND: CCc1nn2c(C)cc(C)nc2c1Cc1ccc(-c2nnc(C3CCNCC3)o2)cc1
MEASURED: 50

COMPOUND: O=c1nc2[nH]c3ccccc3nc-2c(=O)[nH]1 [ALLOXAZINE]
MEASURED: 41

COMPOUND: COCCCN1CCC(NC(=O)c2cc(Cl)c(N)c3c2OCC3)CC1 [PRUCALOPRIDE]
MEASURED: 39

COMPOUND: S=C(NCCCc1c[nH]cn1)NCCCN(Cc1ccc(Cl)c(Cl)c1)c1ccc(Br)cn1
MEASURED: 48

The compound listed as "CN(C)C(=O)Cn1cc(-c2ccc(-c3nnc4ccccn34)cc2)cn1" shows Population Mitochondria Different-Phenotype (%) equal to 44

For CN1CCN2c3ccccc3Cc3ccccc3C2C1.Cl (configuration not stated) [MIANSERIN HYDROCHLORIDE] the compound record lists Population Mitochondria Different-Phenotype (%) as 37

Per the record, CC(C)(C)c1ccc(CSc2cnn(C(C)(C)C)c(=O)c2Cl)cc1 [PYRIDABEN] has Population Mitochondria Different-Phenotype (%) of 43

The recorded Population Mitochondria Different-Phenotype (%) for entry CSc1nc(NC2CCCC2)c([N+](=O)[O-])c(NC2CCCC2)n1 [GS-39783] equals 51
